assay: solvent given as SMILES; details: in CCCCCCO
Test readout: emission maximum (nm)
// return numeric value only (unit: nm, not printed)

Past entries and their recorded results:
[[record]]
structure_as_smiles = "O=C1CCCc2c1[nH]c1cc3c(cc21)OCO3"
data_value = 430.73

[[record]]
structure_as_smiles = "CCNc1ccc2c(C(F)(F)F)cc(=O)oc2c1"
data_value = 490

[[record]]
structure_as_smiles = "CC1=C(C(C)(C)C)C(C)=[N+]2C1=C(C)c1c(C)c(C(C)(C)C)c(C)n1[B-]2(F)F"
data_value = 565.4

[[record]]
structure_as_smiles = "CCN1C(=CC=Cc2n(CC)c3cc(Cl)c(Cl)cc3[n+]2CC)N(CC)c2cc(Cl)c(Cl)cc21"
data_value = 535


For this compound ( COc1cc(/C=C/c2cc[n+](Cc3ccc(Br)cc3)cc2)ccc1O ), measured emission maximum is 553

====

Each entry below carries its reported emission maximum.
assay: solvent given as SMILES; details: in C1COCCO1
// return numeric value only (unit: nm, not printed)

Past entries and their recorded results:
[[record]]
structure_as_smiles = "CN1C(=O)/C(=C/c2ccncc2)N=C1/C=C/c1ccncc1"
data_value = 537

[[record]]
structure_as_smiles = "COc1cccc(-n2c(-c3ccc(F)cc3)nc(C)c2C)c1"
data_value = 369

[[record]]
structure_as_smiles = "CCCCOc1ccc(/C=C/C2=[N+]3C(=C(c4ccc(I)cc4)c4c(/C=C/c5ccc(N(C)C)cc5)cc(/C=C/c5ccc(OC)cc5)n4[B-]3(F)F)C(/C=C/c3ccc(OCCOCCOC)cc3)=C2)cc1"
data_value = 714


For this compound ( CNc1ccc(/C=C/C#N)cc1 ), measured emission maximum is 399

====

assay: solvent given as SMILES; conditions: in CCCCCC
Test readout: emission maximum (nm)
// return numeric value only (unit: nm, not printed)

[[record]]
structure_as_smiles = "O=Cc1ccc(N(c2ccc(C=O)cc2)c2ccc(-c3ccc4c(c3)C(=O)c3ccccc3C4=O)cc2)cc1"
measurement_units = "nm"
data_value = 493

[[record]]
structure_as_smiles = "C/C=C/c1cc(OC)cc(OC)c1"
measurement_units = "nm"
data_value = 338

[[record]]
structure_as_smiles = "CCCCCCCCN1c2ccc(C#Cc3cc(C(F)(F)F)cc(C(F)(F)F)c3)cc2Sc2cc(C=O)ccc21"
measurement_units = "nm"
data_value = 491

[[record]]
structure_as_smiles = "O=S(=O)(c1ccc(-c2ccc(-c3nc4c5ccccc5c5ccccc5c4n3-c3ccccc3)cc2)cc1)c1ccc(-c2ccc(-c3nc4c5ccccc5c5ccccc5c4n3-c3ccccc3)cc2)cc1"
measurement_units = "nm"
data_value = 404

[[record]]
structure_as_smiles = "O=C1c2cccc3c(NCc4ccccn4)c4ccccc4c(c23)C(=O)N1Cc1ccccn1"
measurement_units = "nm"
data_value = 594


For this compound ( CCN(CC)c1ccc(-c2nc3c(c4c2-c2ccc(C#N)cc2CC4)-c2ccc(C#N)cc2CC3)cc1 ), measured emission maximum is 455

For this compound ( Cc1ccc(-c2cc3ccccc3oc2=O)cc1 ), measured emission maximum is 425

For this compound ( CCCCCCC(CCCCCC)N1C(=O)c2cccc3c(-c4ccc(-c5ccc(OC)cc5)cc4)ccc(c23)C1=O ), measured emission maximum is 426.8

For this compound ( F[B-]1(F)n2c(c3cccc4cccc2c43)=Nc2sc3ccccc3[n+]21 ), measured emission maximum is 493

For this compound ( CCOC(=O)COc1ccc(/C=C/c2c(CC)c(C)c3n2[B-](F)(F)[N+]2=C(c4[nH]c(C)c(CC)c4C)c4ccccc4C2=C3C)cc1 ), measured emission maximum is 698

For this compound ( COc1ccc(-c2nc3c(c4c2-c2ccc(C#N)cc2CC4)-c2ccc(C#N)cc2CC3)cc1 ), measured emission maximum is 420

For this compound ( Cc1ccc(-n2c(C)ccc2C)cc1 ), measured emission maximum is 337

Source of measurements: the Deep4Chem optical property database
